Source of measurements: patent US10722520B2

Here's what we have: IC50 numbers for SHV-1 (Klebsiella pneumoniae).
Value expressed in nM; do not type the unit.

NCCONC(=O)c1ccn(C2=CC3CN(C2)C(=O)N3OS(=O)(=O)O)n1 (stereo not shown) [Example 46] :: 4
O=C1N2CC(n3ccnc3CO)=CC(C2)N1OS(=O)(=O)[O-].[Na+] (stereo not shown) [Example 70] :: 2.3
O=C(Nc1nccs1)c1ccn(C2=CC3CN(C2)C(=O)N3OS(=O)(=O)[O-])n1.[Na+] (stereo not shown) [Example 25] :: 1.2

As a next step, examine the compound that follows.
Field IC50 (entry O=C1N2CC(n3ncnn3)=CC(C2)N1OS(=O)(=O)[O-].[Na+] (stereo not shown) [Example 44] ) reads 3.3
